target or test system: human RORγt LBD (Homo sapiens)
Sequence (P51449 258-518): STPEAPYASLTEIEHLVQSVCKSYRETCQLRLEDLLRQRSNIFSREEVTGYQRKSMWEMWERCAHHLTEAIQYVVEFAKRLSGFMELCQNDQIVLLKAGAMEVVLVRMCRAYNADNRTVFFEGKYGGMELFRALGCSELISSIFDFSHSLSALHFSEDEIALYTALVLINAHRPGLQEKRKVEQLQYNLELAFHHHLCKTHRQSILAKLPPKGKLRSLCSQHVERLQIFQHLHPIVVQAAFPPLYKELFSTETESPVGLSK
method notes: RORγt reporter assay (GAL4-RORγt LBD luciferase in HEK293T cells)
test parameters: HEK293T cells, 24 hours compound treatment
pIC50: −log10 of the molar value.
value kind: pIC50

Consider the following illustrative entries.
Cc1ncc(C(O)(c2ccc(Cl)cc2)c2ccc3nc(C#N)c(-c4ccccc4)c(Cl)c3c2)n1C (stereo not shown)
6.51
Cc1ccc(C(O)(c2cc(C)c3nc(Cl)c(-c4ccccc4)c(Cl)c3c2)c2sccc2C)cn1 (stereo not shown)
6.31

a. N#Cc1ccc(C(O)(c2cccc(Cl)c2)c2ccc3nc(C#N)c(-c4ccccc4)c(C#N)c3c2)cn1 (stereo not shown)
b. CC(C)Oc1nc2ccc(C(O)(c3ccncc3)c3cncn3C)cc2c(Cl)c1-c1ccccc1 (stereo not shown)
Exercise: Of a versus b , which is the one with smaller reported pIC50? To answer, give the label that identifies your chosen option.
Solution: b
(b: 6.80, a: 7.41)

---

target or test system: human RORγt LBD (Homo sapiens, UniProt P51449)
method notes: RORγt reporter assay (GAL4-RORγt LBD luciferase in HEK293T cells)
test parameters: HEK293T cells, 24 hours compound treatment
pIC50: −log10 of the molar value.
value kind: pIC50

Consider the following illustrative entries.
Cn1cncc1C(O)(c1ccc2nc(C(F)(F)F)c(-c3ccccc3)c(C#N)c2c1)c1ccccn1 (stereo not drawn) [Example 118]
6.43
Cc1cc(C(O)(c2ccc(F)cc2)c2cncn2C)cc2c(C#N)c(-c3cccc(F)c3)c(C#N)nc12 (single isomer, unassigned) [Example 175b]
5.68

I. OC(c1ccc(Cl)cc1)(c1cncnc1)c1ccc2nc(Cl)c(-c3ccccc3)c(Cl)c2c1 (stereo not drawn) [Example 124]
II. OC(c1cccnc1)(c1cccnc1)c1ccc2nc(Cl)c(-c3ccccc3)c(Cl)c2c1 [Example 24]
Exercise: Of I versus II , which is the one with smaller reported pIC50? To answer, give the label that identifies your chosen option.
Solution: I
(I: 6.66, II: 7.10)

---

target or test system: human RORγt LBD (Homo sapiens, UniProt P51449)
Construct: expressed in transfected cells
method notes: RORγt reporter assay (GAL4-RORγt LBD luciferase in HEK293T cells)
Format: cell-based
test parameters: HEK-293T, read-out: RORγt reporter Assay, % inhibition @ 6 μM, HEK293T cells, 6 μM compound
value kind: inhibition at 6 µM (%)

COC(c1ccc2nc(Cl)c(-c3ccccc3)c(Cl)c2c1)(c1cnccn1)c1cncn1C (centres unmarked)
88
COc1cccc(C(O)(c2ccc(C)nc2)c2ccc3nc(Cl)c(-c4ccccc4)c(Cl)c3c2)c1 (centres unmarked)
99
N#Cc1ccc(C(O)(c2cccc(Cl)c2)c2ccc3nc(C#N)c(-c4ccccc4)c(C#N)c3c2)cn1 (centres unmarked)
100
Cn1cncc1C(O)(c1ccncc1)c1ccc2nc(Cl)c(-c3ccccc3)c(Cl)c2c1F (centres unmarked)
92
Cn1cncc1C(O)(c1ccncc1)c1ccc2ncc(-c3ccccc3)c(Cl)c2c1 (centres unmarked)
61
Cn1cncc1C(O)(c1cccnc1)c1ccc2ncc(-c3ccccc3)c(Cl)c2c1 (centres unmarked)
75
Cn1nncc1C(O)(c1ccc2nc(C(F)(F)F)c(-c3ccccc3)c(C(F)(F)F)c2c1)c1cnnn1C
94
CC(C)(C)OC(=O)N1CCCC(C(O)(c2cccnc2)c2ccc3nc(Cl)c(-c4ccccc4)c(Cl)c3c2)C1 (centres unmarked)
79
